# Tested on: Glutamate receptor ionotropic, NMDA 3A (GRIN3A) ligand-binding domain
# TEST DETAILS: binders of NR3A ligand-binding domain, primary screen, biophysical, differential scanning fluorimetry, uHTS (AID 1259313)
# CONDITION DETAILS: NR3A LBD differential scanning fluorimetry, at 25 µM, stronger effect = higher value, 0% = protein alone, 100% = glycine-bound protein
Hit rate of the full screen: of about 340,000 compounds, about 8,500 (2.5%) were called active. Shown is part of a subset that was picked to be rich in actives.
# Tm shift relative to glycine control values compiled below

COMPOUND: O=C(NN1C(=O)C2C3C=CC(O3)C2C1=O)c1ccccc1 (stereo not given)
Tm shift relative to glycine control [%]: -2.22

COMPOUND: CCOc1cc2[nH]c(=S)n(CCN3CCCCC3C)c(=O)c2cc1OCC (stereo not given)
Tm shift relative to glycine control [%]: 0.59

COMPOUND: Cc1ccc(C(C(=O)NC2CCCCC2)N(C(=O)c2csnn2)C2CC2)o1 (stereo not given)
Tm shift relative to glycine control [%]: -0.78

COMPOUND: CSCCC(NS(=O)(=O)c1ccc(C)cc1)C(=O)N(C)CC(=O)Nc1ccccc1Br (stereo not given)
Tm shift relative to glycine control [%]: 0.34

COMPOUND: CCc1ccccc1NC(=O)c1cc(-c2ccc3c(c2)OCO3)on1
Tm shift relative to glycine control [%]: 0.47

----------
# Tested on: Glutamate receptor ionotropic, NMDA 3A (GRIN3A) ligand-binding domain
# TEST DETAILS: binders of NR3A ligand-binding domain, primary screen, biophysical, differential scanning fluorimetry, uHTS (AID 1259313)
# CONDITION DETAILS: NR3A LBD differential scanning fluorimetry, at 25 µM, stronger effect = higher value, 0% = protein alone, 100% = glycine-bound protein
Among all 340,000 compounds or so, about 8,500 (2.5%) were called active. This is one part of a sample in which actives are shown more often than they occur.
# Tm shift relative to glycine control values compiled below
TEST READOUT: Tm shift relative to glycine control (%)

COMPOUND: COc1ccc(NC(=O)Nc2ccc3nc(C)c(C)nc3c2)cc1
MEASURED TARGET: Glutamate receptor ionotropic, NMDA 3A (GRIN3A) ligand-binding domain
VALUE OBSERVED: 19
--
COMPOUND: Fc1ccc(OCc2nn3c(Cn4nnc5ccccc54)nnc3s2)cc1
MEASURED TARGET: Glutamate receptor ionotropic, NMDA 3A (GRIN3A) ligand-binding domain
VALUE OBSERVED: 2.39
--
COMPOUND: COc1ccc(CN2CCNC(=O)C2CC(=O)N(C)Cc2ccccn2)cc1OC (configuration not stated)
MEASURED TARGET: Glutamate receptor ionotropic, NMDA 3A (GRIN3A) ligand-binding domain
VALUE OBSERVED: 2.19
--
COMPOUND: COc1ccc2nc(/N=C(\N)NC(=O)Nc3ccccc3)nc(C)c2c1
MEASURED TARGET: Glutamate receptor ionotropic, NMDA 3A (GRIN3A) ligand-binding domain
VALUE OBSERVED: 29.4
--
COMPOUND: O=C(CCN1CCCCC1)N=Nc1c(O)[nH]c2ccccc12
MEASURED TARGET: Glutamate receptor ionotropic, NMDA 3A (GRIN3A) ligand-binding domain
VALUE OBSERVED: -1
--
COMPOUND: O=C(NN=Cc1ccccc1O)NN=Cc1ccccc1O
MEASURED TARGET: Glutamate receptor ionotropic, NMDA 3A (GRIN3A) ligand-binding domain
VALUE OBSERVED: 29.9
--
COMPOUND: CN(CC#CCC(c1ccccc1)c1ccccc1)C(C)(C)C
MEASURED TARGET: Glutamate receptor ionotropic, NMDA 3A (GRIN3A) ligand-binding domain
VALUE OBSERVED: -1.63
--
COMPOUND: CC(NC(=O)c1cc(=O)[nH]c2ccccc12)c1ccc(F)cc1F (configuration not stated)
MEASURED TARGET: Glutamate receptor ionotropic, NMDA 3A (GRIN3A) ligand-binding domain
VALUE OBSERVED: -1.44
--
COMPOUND: Cc1c(-c2ccccc2)n[nH]c1C(=O)N=Nc1c(O)[nH]c2ccccc12
MEASURED TARGET: Glutamate receptor ionotropic, NMDA 3A (GRIN3A) ligand-binding domain
VALUE OBSERVED: 13.9
--
COMPOUND: Cc1sc(NC(=O)C2=COCCO2)c(C#N)c1C
MEASURED TARGET: Glutamate receptor ionotropic, NMDA 3A (GRIN3A) ligand-binding domain
VALUE OBSERVED: -1.88
--
COMPOUND: O=C(N/N=C/c1ccccc1O)C1CCCC1
MEASURED TARGET: Glutamate receptor ionotropic, NMDA 3A (GRIN3A) ligand-binding domain
VALUE OBSERVED: -0.52
--
COMPOUND: OC(C#CCN1CCOCC1)(c1ccccc1)C1CCCCC1 (configuration not stated)
MEASURED TARGET: Glutamate receptor ionotropic, NMDA 3A (GRIN3A) ligand-binding domain
VALUE OBSERVED: 0.88
